Measured values drawn from patent US20230303690A1 for this set.

target: T1, human LAG3 expressed on cells (human, UniProt P18627 23-525)
T1 construct: whole, on cells
T1 sequence (looked up): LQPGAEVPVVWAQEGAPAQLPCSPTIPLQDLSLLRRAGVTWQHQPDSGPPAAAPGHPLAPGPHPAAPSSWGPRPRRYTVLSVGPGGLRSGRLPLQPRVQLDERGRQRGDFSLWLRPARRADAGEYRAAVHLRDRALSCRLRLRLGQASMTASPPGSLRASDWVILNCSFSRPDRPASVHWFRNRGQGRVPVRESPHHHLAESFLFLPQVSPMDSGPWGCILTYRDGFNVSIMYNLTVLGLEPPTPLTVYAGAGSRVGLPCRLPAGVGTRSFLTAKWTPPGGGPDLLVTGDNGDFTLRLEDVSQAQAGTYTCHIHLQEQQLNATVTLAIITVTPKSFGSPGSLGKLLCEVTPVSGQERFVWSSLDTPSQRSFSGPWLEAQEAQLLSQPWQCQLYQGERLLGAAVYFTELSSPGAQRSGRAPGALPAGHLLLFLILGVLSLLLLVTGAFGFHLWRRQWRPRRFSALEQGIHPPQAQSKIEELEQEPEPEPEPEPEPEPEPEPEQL
test.description: cell ELISA, 293T-hLAG3 cells
In this section we review reported OD450 at 0.0137174 ug/ml values for a set of binders.
# answer = number (no unit)

A selection of reference data follows.
sdAb No. 17 (VHH, Fc of the tested form not described; also called sdAb 17; not shown: Fc part implied by anti-human Fc capture and anti-human IgG1 Fc detection) VHH: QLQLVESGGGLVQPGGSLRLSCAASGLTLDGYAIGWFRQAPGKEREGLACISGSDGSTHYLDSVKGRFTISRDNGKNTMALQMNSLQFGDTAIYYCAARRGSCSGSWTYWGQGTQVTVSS :: 0.259
sdAb No. 17-H4 (VHH, Modified sdAb No. 17 (CDR2 DG to EG); not shown: Fc part implied by anti-human IgG1 Fc detection) VHH: QLQLVESGGGLVQPGGSLRLSCAASGLTLDGYAIGWFRQAPGKEREGLACISGSEGSTHYLDSVKGRFTISRDNGKNTMALQMNSLQFGDTAIYYCAARRGSCSGSWTYWGQGTQVTVSS :: 0.232
sdAb No. 17-H1 (VHH, Modified sdAb No. 17 (CDR1 DG to DA); not shown: Fc part implied by anti-human IgG1 Fc detection) VHH: QLQLVESGGGLVQPGGSLRLSCAASGLTLDAYAIGWFRQAPGKEREGLACISGSDGSTHYLDSVKGRFTISRDNGKNTMALQMNSLQFGDTAIYYCAARRGSCSGSWTYWGQGTQVTVSS :: 0.242

Switching to the query record.
Briefly, OD450 at 0.0137174 ug/ml measured for sdAb No. 27-H1 (VHH, Modified sdAb No. 27 (CDR2 DG to DA); not shown: Fc part implied by anti-human IgG1 Fc detection) VHH: QVQLVESGGGLVQPGGSLRLSCAASGFTLDYYAIGWFRQAPGKEREGVSCIRSSDASTYYADSVKGRFTISSDNTKNTVYLQMNSLKPEDTAVYYCATDRYSDCRGPYENWGQGTQVTVSS : 0.171
